Molecular target: Cytochrome P450 2C9 (Homo sapiens) (UniProt P11712)
Sequence (P11712 whole entry, looked up): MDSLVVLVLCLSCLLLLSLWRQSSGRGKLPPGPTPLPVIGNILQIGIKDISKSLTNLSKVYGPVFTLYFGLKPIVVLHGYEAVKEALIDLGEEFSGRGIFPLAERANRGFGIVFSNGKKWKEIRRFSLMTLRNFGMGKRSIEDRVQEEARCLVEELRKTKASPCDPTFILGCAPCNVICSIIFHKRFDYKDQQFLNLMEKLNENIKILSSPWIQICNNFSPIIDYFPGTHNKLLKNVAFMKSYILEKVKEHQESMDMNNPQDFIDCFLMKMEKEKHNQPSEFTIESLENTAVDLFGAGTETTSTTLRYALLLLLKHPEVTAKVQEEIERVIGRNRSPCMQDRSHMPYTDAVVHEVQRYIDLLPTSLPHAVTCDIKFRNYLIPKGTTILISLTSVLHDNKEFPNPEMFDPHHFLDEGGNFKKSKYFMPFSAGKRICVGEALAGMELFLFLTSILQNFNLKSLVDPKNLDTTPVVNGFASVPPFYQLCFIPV
Experiment: Cytochrome P450 Family 2 Subfamily C Member 9 (CYP2C9) small molecule antagonists: luciferase reporter qHTS assay (AID 1671198); further: nearly all actives have a fitted effect of over 50% in size
Conditions: P450-Glo CYP2C9 enzyme assay, luciferin luminescence; series mostly up to 115 µM
Results filed as inconclusive are left out. The source made the active and inactive calls. The call rests on the fitted dose curve; in most records, active means well fitted inhibition curve with a large enough effect in the repeat runs; inconclusive means weak or mixed curves; inactive means no such curve, though single readings can be large or run the other way.
Outcomes: active, inactive

[
  {
    "Given smiles": "O=C(c1ccc(O)cc1)c1ccc(O)c(O)c1O",
    "Cat": "inactive"
  },
  {
    "Given smiles": "CCCOC(OCCC)OCCC",
    "Cat": "inactive"
  },
  {
    "Given smiles": "CO[C@@H]1[C@@H](OC(N)=O)[C@@H](O)[C@H](Oc2ccc3c(O)c(NC(=O)c4ccc(O)c(CC=C(C)C)c4)c(=O)oc3c2C)OC1(C)C",
    "Cat": "active"
  },
  {
    "Given smiles": "Cc1cc(C(C)(C)C)c(O)c(C)c1CC1=NCCN1",
    "Cat": "inactive"
  },
  {
    "Given smiles": "O=C1c2ccccc2C(=O)N1CCl",
    "Cat": "inactive"
  },
  {
    "Given smiles": "CCOCCOC(=O)/C=C/c1ccc(OC)cc1",
    "Cat": "active"
  },
  {
    "Given smiles": "CC(C)OC(=O)CCCCC(=O)OC(C)C",
    "Cat": "inactive"
  },
  {
    "Given smiles": "CCCCOC(=O)c1ccccc1",
    "Cat": "inactive"
  },
  {
    "Given smiles": "COc1ccc(Br)c(C)c1",
    "Cat": "inactive"
  },
  {
    "Given smiles": "CC(C)(C)c1cc(CCC(=O)NN)cc(C(C)(C)C)c1O",
    "Cat": "active"
  },
  {
    "Given smiles": "O=C(O)Cc1ccc(Cl)cc1Cl",
    "Cat": "inactive"
  },
  {
    "Given smiles": "COCCOCCOCCOCCO",
    "Cat": "inactive"
  },
  {
    "Given smiles": "CC1=CCC(C(C)C)=CC1",
    "Cat": "inactive"
  }
]
